target: Gal(b1-4)GlcNAc(b1-2)[Gal(b1-4)GlcNAc(b1-6)]Man(a1-6)[Gal(b1-4)GlcNAc(b1-2)Man(a1-3)]Man(b1-4)GlcNAc(b1-4)GlcNAc; assay: glycan array binding signal (z-score within array); higher = stronger binding; conditions: glycan notation: IUPAC condensed, linker removed
This excerpt belongs to a sample that is enriched for the strongest signals.
assay metric: glycan array binding signal (z-score)
Could you keep your reply to the number by itself?

binder Threefoil (Haloarcula marismortui) (protein) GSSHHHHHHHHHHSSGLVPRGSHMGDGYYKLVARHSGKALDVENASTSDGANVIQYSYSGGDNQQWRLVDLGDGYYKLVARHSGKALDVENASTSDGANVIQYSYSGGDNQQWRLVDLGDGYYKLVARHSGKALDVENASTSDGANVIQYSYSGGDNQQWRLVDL , glycan array binding signal (z-score) observed: 0.527

binder Gal 3C (Homo sapiens), P17931 (protein) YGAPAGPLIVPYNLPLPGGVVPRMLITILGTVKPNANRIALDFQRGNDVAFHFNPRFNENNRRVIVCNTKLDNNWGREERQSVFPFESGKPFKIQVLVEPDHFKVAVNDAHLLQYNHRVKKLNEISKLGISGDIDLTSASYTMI , glycan array binding signal (z-score) observed: -0.222
